The reported numbers originate from a melting point compilation (Tetko et al.).

Listing: melting point of selected compounds
Non-standard residues stand in square brackets, D forms with d. Residues, ends and D or L forms follow the SMILES beside them. *: point of attachment. Phe(2-Me) = Cc1ccccc1C[CH](N)C(=O)O; Tle = CC(C)(C)[CH](N)C(=O)O; X3 = CC(C)(C)OC(=O)CCC(=O)*; X4 = CCC(N*)C(OC)OC; OtBu = CC(C)(C)O*

Example results:
>>> result("CCCCCCCCCCOc1c(-c2nc3ccccc3s2)sc(-c2sc(-c3nc4ccccc4s3)c(OCCCCCCCCCC)c2OCCCCCCCCCC)c1OCCCCCCCCCC")
"93.9 to 95 °C"
>>> result("O=C(OCc1ccc(OCCCCCCCCCCC2c3c(c4ccccc4c4ccccc34)-c3c2c2ccccc2c2ccccc32)cc1)C(=CNC1CC1)C(=O)c1cc(F)c(F)cc1F")
"49 to 51 °C"
>>> result("O=c1[nH]c(=Cc2ccc(OCc3ccccc3)cn2)c(=O)[nH]c1=Cc1ccc(OCc2ccccc2)cn1")
"283 to 285 °C"

Query :: Please indicate melting point recorded for CCC(NC(=O)C(CC(C)C)NC(=O)C(NC(=O)C(Cc1ccccc1C)NC(=O)C(CCC(=O)OC(C)(C)C)NC(=O)C(CC(=O)OC(C)(C)C)NC(=O)CCC(=O)OC(C)(C)C)C(C)(C)C)C(OC)OC (X3-D(OtBu)E(OtBu)[Phe(2-Me)][Tle]L-X4; configuration not given here)
Result :: 242 to 244 °C

Query :: Please indicate melting point recorded for "O=C(Oc1c(I)cc(I)cc1I)C(F)(F)C(F)(F)C(F)(F)C(F)(F)C(F)(F)C(F)(F)F"
Result :: 71 to 73 °C

Query :: Please indicate melting point recorded for "O=C(CCS(=O)(=O)CCCl)OCC(COC(=O)CCS(=O)(=O)CCCl)(COC(=O)CCS(=O)(=O)CCCl)COC(=O)CCS(=O)(=O)CCCl"
Result :: 68 to 69 °C

Query :: Please indicate melting point recorded for "CC1=NN(CCCc2ccccc2)C(=O)C1"
Result :: 103 to 105 °C

Query :: Please indicate melting point recorded for "CCCCCCCCCCCCNC(=O)c1cccc(Sc2c(Nc3cc(C(=O)NCCCCCCCCCCCC)ccc3Cl)nn(-c3c(Cl)cc(Cl)cc3Cl)c2OS(=O)(=O)c2ccccc2)c1"
Result :: 112 to 114 °C

Query :: Please indicate melting point recorded for C=CC(CC(O)C(CC1CCCCC1)NC(=O)C(Cc1c[nH]cn1)NC(=O)C(Cc1ccccc1)NC(=O)CN(CCNC(=O)OC(C)(C)C)C(=O)OC(C)(C)C)C(C)C (centres undefined)
Result :: 109 °C

Query :: Please indicate melting point recorded for "C=CCNc1nc(NC(C)(C)CC(C)(C)C)nc(N(CCCCCCN(c2nc(NCC=C)nc(NC(C)(C)CC(C)(C)C)n2)C2CC(C)(C)NC(C)(C)C2)C2CC(C)(C)NC(C)(C)C2)n1"
Result :: 160 to 162 °C

Query :: Please indicate melting point recorded for "CCCCCCCCCCCCSc1nc(N(C2CC(C)(C)NC(C)(C)C2)C2CC(C)(C)NC(C)(C)C2)nc(N(C2CC(C)(C)NC(C)(C)C2)C2CC(C)(C)NC(C)(C)C2)n1"
Result :: 168 to 170 °C

Query :: Please indicate melting point recorded for "CCCCCCCCCCCS(=O)(=O)c1cc2c3cc(S(=O)(=O)CCCCCCCCCCC)c(S(=O)(=O)CCCCCCCCCCC)cc3c3cc(S(=O)(=O)CCCCCCCCCCC)c(S(=O)(=O)CCCCCCCCCCC)cc3c2cc1S(=O)(=O)CCCCCCCCCCC"
Result :: 179 to 180 °C

Query :: Please indicate melting point recorded for "CC(C)(CCCCCCCCC(C)(C)NC(=O)C(C)(C)Cc1cc(C(C)(C)C)c(O)c(C(C)(C)C)c1)NC(=O)C(C)(C)Cc1cc(C(C)(C)C)c(O)c(C(C)(C)C)c1"
Result :: 126 °C

Query :: Please indicate melting point recorded for "COC(=O)CCc1ccc(N(c2ccc(-c3ccc(N(c4ccc(CCC(=O)OC)cc4)c4cccc5c4Cc4ccccc4-5)cc3)cc2)c2cccc3c2Cc2ccccc2-3)cc1"
Result :: 127 to 129 °C

Query :: Please indicate melting point recorded for "CCCCCC/C(=C\C=C\C(=O)O)c1ccc(OC)cc1"
Result :: 88 to 89.5 °C

Query :: Please indicate melting point recorded for "O=C(OCCCOC(=O)C(OCc1ccc(-c2ccc(Cl)cc2)cc1)(C(F)(F)F)C(F)(F)F)C(OCc1ccc(-c2ccc(Cl)cc2)cc1)(C(F)(F)F)C(F)(F)F"
Result :: 93 to 94 °C

Query :: Please indicate melting point recorded for "CCCCCCCCCCCCCCCCCCCCCCCCCC(C)=CCCC(C)=CCCC(C)=CCCC(C)=CCCC(C)=CCCC(C)=CCCC(C)=CCCC(C)=CCCC(C)=CCOC(=O)C1CCCCC1"
Result :: 34 to 35 °C

Query :: Please indicate melting point recorded for "F[Si](c1ccccc1)(c1ccccc1)c1ccccc1"
Result :: 64 °C

Query :: Please indicate melting point recorded for CC(=O)OCC(O)CO (centres undefined)
Result :: 17 °C

Query :: Please indicate melting point recorded for [C-]#[N+]CCC(O)COc1ccc(C(C)(C)C)cc1 (centres undefined)
Result :: 69 to 72 °C
